target: IRAK4 (Homo sapiens (Human), UniProt Q9NWZ3); assay: IRAK4 Kinase Assay; assay type: biochemical; conditions: IMAP fluorescence polarization, 0.5 nM GST tagged IRAK4, 100 μM ATP, 30 minutes at 25° C.; read-out: IRAK4 IC50
Sequence (Q9NWZ3 whole entry): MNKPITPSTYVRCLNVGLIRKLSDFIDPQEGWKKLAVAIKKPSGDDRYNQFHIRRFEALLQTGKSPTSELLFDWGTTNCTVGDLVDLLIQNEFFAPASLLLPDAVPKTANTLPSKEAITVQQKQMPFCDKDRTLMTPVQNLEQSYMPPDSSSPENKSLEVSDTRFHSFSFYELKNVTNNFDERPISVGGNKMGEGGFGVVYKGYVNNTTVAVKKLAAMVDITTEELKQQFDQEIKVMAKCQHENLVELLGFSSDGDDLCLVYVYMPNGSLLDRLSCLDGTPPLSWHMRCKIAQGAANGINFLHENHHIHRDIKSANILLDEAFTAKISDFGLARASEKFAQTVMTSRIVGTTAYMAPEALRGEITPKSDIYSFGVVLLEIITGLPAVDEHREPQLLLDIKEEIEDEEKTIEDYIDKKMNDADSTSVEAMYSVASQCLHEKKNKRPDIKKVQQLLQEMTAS
pIC50: −log10 of the molar value. Structures can show the parent of a compound that is named as a salt.
Property Name: pIC50

* O=C(Nc1ccccc1Cl)c1cnn2ccc(N3CCCNCC3)nc12 [Example 105, trifluoroacetate] | 5.90
* Cn1cc(NC(=O)c2cnn3ccc(N4C[C@H]5CN[C@H](C5)C4)nc23)c(C(F)F)n1 (single isomer, unassigned) [Example 184, trifluoroacetate] | 7.33
* Cn1cc(NC(=O)c2cnn3ccc(N4CCC(F)(F)[C@@H](N)C4)nc23)c(C(F)(F)F)n1 (single isomer, unassigned) [Example 188] | 7.22
* Cn1cc(NC(=O)c2cnn3ccc(N4C[C@@H]5CC[C@H]4CN5)nc23)c(Cl)n1 (single isomer, unassigned) [Example 151] | 6.89
* Cn1cc(NC(=O)c2cnn3ccc(N[C@@H]4CNCC[C@H]4F)nc23)c(C(F)(F)F)n1 (single isomer, unassigned) [Example 232] | 7.89
* N[C@@H]1[C@H](Nc2ccn3ncc(C(=O)Nc4ccccc4Br)c3n2)CCCC1(F)F [Example 108, trifluoroacetate] | 5.72
* COCCc1nn(C)cc1NC(=O)c1cnn2ccc(N[C@@H]3CCCC[C@@H]3N)nc12 [Example 283, trifluoroacetate] | 7.12
* Cn1cc(NC(=O)c2cnn3ccc(N4CCC[C@H](O)C4)nc23)c(C(F)F)n1 [Example 26] | 9.30

----------
biological target: UniProtKB Q9NWZ3; test: IRAK4 Kinase Assay; assay type: biochemical; conditions: IMAP fluorescence polarization, 0.5 nM GST tagged IRAK4, 100 μM ATP, 30 minutes at 25° C.; read-out: IRAK4 IC50
pIC50: −log10 of the molar value. Counter-ions that a name gives are not always drawn.
Quick rule for you: pIC50 at 8 or higher means Satisfied, lower means Not satisfied.

* O=C(Nc1cscc1C(F)F)c1cnn2ccc(N3CCCNCC3)nc12 [Example 120, trifluoroacetate] | Not satisfied
* Cn1cc(NC(=O)c2cnn3ccc(N4CCNCC5(CC5)C4)nc23)c(C(F)F)n1 [Example 86, trifluoroacetate] | Satisfied
* Cn1cc(NC(=O)c2cnn3ccc(N4C[C@@H](N)C[C@@H](F)C4)nc23)c(C(F)F)n1 [Example 249, trifluoroacetate] | Satisfied
* N#Cc1ccccc1NC(=O)c1cnn2ccc(N[C@@H]3CCCC(F)(F)[C@@H]3N)nc12 | Not satisfied
* N#Cc1sccc1NC(=O)c1cnn2ccc(N[C@@H]3CCCC(F)(F)[C@@H]3N)nc12 [Example 191] | Not satisfied

----------
target: IRAK4 (Homo sapiens (Human), UniProt Q9NWZ3); assay: IRAK4 Kinase Assay; format: biochemical; conditions: IMAP fluorescence polarization, 0.5 nM GST tagged IRAK4, 100 μM ATP, 30 minutes at 25° C.; read-out: IRAK4 IC50
pIC50: −log10 of the molar value. Where a name gives a salt, the structure may show the parent alone.
Property Name: pIC50

- O=C(Nc1cscc1C(F)F)c1cnn2ccc(N3C[C@@H]4CC[C@H]3CN4)nc12 (single isomer, unassigned) [Example 154, trifluoroacetate]: 7.07
- Cn1cc(NC(=O)c2cnn3ccc(N4C[C@H]5CN[C@H](C5)C4)nc23)c(C(F)(F)F)n1 (single isomer, unassigned) [Example 225]: 6.51
- Cn1cc(NC(=O)c2cnn3ccc(N[C@H]4CNC[C@H](F)C4)nc23)c(C(F)F)n1 [Example 261, trifluoroacetate]: 9.30
